ASSAY_SYSTEM: T1, TNF (UniProt P01375 77-233)
T1 construct: also called TNF-alpha; Tumor Necrosis Factor
T1 sequence (P01375 77-233 limits assumed): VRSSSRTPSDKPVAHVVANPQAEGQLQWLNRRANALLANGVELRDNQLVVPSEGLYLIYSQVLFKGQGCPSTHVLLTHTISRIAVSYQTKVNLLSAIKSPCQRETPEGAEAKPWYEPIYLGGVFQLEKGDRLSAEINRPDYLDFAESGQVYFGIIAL
ASSAY_TEXT: inhibition of the TNF/TNF receptor interaction; format not described in Example 1
Positions of bridges follow the written chain, without caps; N, C: chain ends. No end group written: not given here.
QUANTITY_NAME: IC50 (µM)
Give the value in µM but do not write µM after it.

Measured IC50 of YCWSQYLCY (disulfide 2-8, Synthetic exocyclic peptide; also called WP9QY peptide; peptidomimetic (WP9QY)) [WP9QY] : 5
